Assay Protocol: Plasma pharmacokinetics (LC-MS/MS, noncompartmental) in phase I patients
Type: in vivo, human
Condition: human, plasma, oral, 750 mg b.i.d., day 22; dose 750 b.i.d.; N=3; mean (SD)
Assay Metric: Cmax (ng/mL)
Numbers only; they are read as ng/mL.

Cmax recorded for this molecule, CSCC[C@H](NC(=O)c1cc(NC[C@@H]2C[C@H](S)CN2)ccc1CCc1ccc(F)cc1)C(=O)OC(C)C [AZD3409 ester] , is 298

For record CSCC[C@H](NC(=O)c1cc(NC[C@@H]2C[C@H](S)CN2)ccc1CCc1ccc(F)cc1)C(=O)O [AZD3409 acid] the listed Cmax is 138

====

Assay Protocol: Plasma pharmacokinetics (LC-MS/MS, noncompartmental) in phase I patients
Format: in vivo, human
Condition: human, plasma, oral, 1250 mg b.i.d., day 22; dose 1250 b.i.d.; N=4; mean (SD)
Can you tell me Cmax for the items I'm about to list?
Note: unit ng/mL is implicit; provide only the numeric part.

Lab note: measured Cmax of CSCC[C@H](NC(=O)c1cc(NC[C@@H]2C[C@H](S)CN2)ccc1CCc1ccc(F)cc1)C(=O)O was 168

Entry CSCC[C@H](NC(=O)c1cc(NC[C@@H]2C[C@H](S)CN2)ccc1CCc1ccc(F)cc1)C(=O)OC(C)C — recorded Cmax = 366

====

For each record, write down the corresponding Cmax.
Assay Protocol: Plasma pharmacokinetics (LC-MS/MS, noncompartmental) in phase I patients
Type: in vivo, human
Condition: human, plasma, oral, 1500 mg b.i.d., day 1; dose 1500 b.i.d.; N=2; absolute values

// sample CSCC[C@H](NC(=O)c1cc(NC[C@@H]2C[C@H](S)CN2)ccc1CCc1ccc(F)cc1)C(=O)OC(C)C [AZD3409 ester] , its Cmax was 227 to 315 ng/mL

// field: Cmax; key: CSCC[C@H](NC(=O)c1cc(NC[C@@H]2C[C@H](S)CN2)ccc1CCc1ccc(F)cc1)C(=O)O [AZD3409 acid] ; value = 83.5 to 148 ng/mL

====

Give measured AUC for each item. Keep answers brief.
Assay Protocol: Plasma pharmacokinetics (LC-MS/MS, noncompartmental) in phase I patients
Assay type: in vivo, human
Condition: human, plasma, oral, 1750 mg b.i.d., day 22; dose 1750 b.i.d.; N=1; read-out: AUC0−τ
Please respond with the number in ng·h/mL and leave the unit unwritten.

// field: AUC; key: CSCC[C@H](NC(=O)c1cc(NC[C@@H]2C[C@H](S)CN2)ccc1CCc1ccc(F)cc1)C(=O)O ; value = 466

// CSCC[C@H](NC(=O)c1cc(NC[C@@H]2C[C@H](S)CN2)ccc1CCc1ccc(F)cc1)C(=O)OC(C)C : AUC value = 1100

====

Assay Protocol: Plasma pharmacokinetics (LC-MS/MS, noncompartmental) in phase I patients
Assay type: in vivo, human
Condition: human, plasma, oral, 1500 mg b.i.d., day 1; dose 1500 b.i.d.; N=2; absolute values; read-out: AUC0−τ
Provide the recorded AUC for the entries that follow.

For CSCC[C@H](NC(=O)c1cc(NC[C@@H]2C[C@H](S)CN2)ccc1CCc1ccc(F)cc1)C(=O)OC(C)C the compound record lists AUC as 1460 to 1630 ng·h/mL

For reference, reported AUC for CSCC[C@H](NC(=O)c1cc(NC[C@@H]2C[C@H](S)CN2)ccc1CCc1ccc(F)cc1)C(=O)O stands at 458 to 749 ng·h/mL

====

Assay Protocol: Plasma pharmacokinetics (LC-MS/MS, noncompartmental) in phase I patients
Assay type: in vivo, human
Condition: human, plasma, oral, 750 mg b.i.d., day 1; dose 750 b.i.d.; N=8; mean (SD)
Hi there, I'd appreciate the recorded Cmax for every entry that follows.
All answers are understood in ng/mL, so give the number only.

For record CSCC[C@H](NC(=O)c1cc(NC[C@@H]2C[C@H](S)CN2)ccc1CCc1ccc(F)cc1)C(=O)O the listed Cmax is 93.8

Lab note: CSCC[C@H](NC(=O)c1cc(NC[C@@H]2C[C@H](S)CN2)ccc1CCc1ccc(F)cc1)C(=O)OC(C)C gave Cmax of 245

====

Assay Protocol: Plasma pharmacokinetics (LC-MS/MS, noncompartmental) in phase I patients
Assay type: in vivo, human
Condition: human, plasma, oral, 1000 mg once daily, day 1; dose 1000 (once daily); N=3; mean (SD)
Assay Metric: Cmax (ng/mL)
Please reply with the bare figure in ng/mL and do not write the unit itself.

For CSCC[C@H](NC(=O)c1cc(NC[C@@H]2C[C@H](S)CN2)ccc1CCc1ccc(F)cc1)C(=O)O the molecule record lists Cmax as 78.6

Input CSCC[C@H](NC(=O)c1cc(NC[C@@H]2C[C@H](S)CN2)ccc1CCc1ccc(F)cc1)C(=O)OC(C)C . Output Cmax: 318

====

Assay Protocol: Plasma pharmacokinetics (LC-MS/MS, noncompartmental) in phase I patients
Assay type: in vivo, human
Condition: human, plasma, oral, 1750 mg b.i.d., day 22; dose 1750 b.i.d.; N=1
Could you please report measured Cmax for the items listed next?
Note: unit ng/mL is implicit; provide only the numeric part.

Query CSCC[C@H](NC(=O)c1cc(NC[C@@H]2C[C@H](S)CN2)ccc1CCc1ccc(F)cc1)C(=O)OC(C)C yields Cmax of 445

# compound CSCC[C@H](NC(=O)c1cc(NC[C@@H]2C[C@H](S)CN2)ccc1CCc1ccc(F)cc1)C(=O)O ; its Cmax = 165

====

Please respond with reported Cmax for every item in the list.
Assay Protocol: Plasma pharmacokinetics (LC-MS/MS, noncompartmental) in phase I patients
Type: in vivo, human
Condition: human, plasma, oral, 1750 mg b.i.d., day 1; dose 1750 b.i.d.; N=4; mean (SD)
Give a bare numeral; the unit ng/mL is implied.

The compound listed as CSCC[C@H](NC(=O)c1cc(NC[C@@H]2C[C@H](S)CN2)ccc1CCc1ccc(F)cc1)C(=O)O shows Cmax equal to 140

Sure, the documented Cmax for CSCC[C@H](NC(=O)c1cc(NC[C@@H]2C[C@H](S)CN2)ccc1CCc1ccc(F)cc1)C(=O)OC(C)C is 362

====

Assay Protocol: Plasma pharmacokinetics (LC-MS/MS, noncompartmental) in phase I patients
Type: in vivo, human
Condition: human, plasma, oral, 1000 mg once daily, day 22; dose 1000 (once daily); N=3; mean (SD); read-out: AUC0−τ
Consider the following molecules; for each one, report its AUC.
# value in ng·h/mL; strip the unit string

Per the records, this molecule ( CSCC[C@H](NC(=O)c1cc(NC[C@@H]2C[C@H](S)CN2)ccc1CCc1ccc(F)cc1)C(=O)O [AZD3409 acid] ) has AUC equal to 904

Sample CSCC[C@H](NC(=O)c1cc(NC[C@@H]2C[C@H](S)CN2)ccc1CCc1ccc(F)cc1)C(=O)OC(C)C [AZD3409 ester] ; AUC observed: 1930

====

Task for the reader: assign each of the following compounds its reported AUC.
Assay Protocol: Plasma pharmacokinetics (LC-MS/MS, noncompartmental) in phase I patients
Type: in vivo, human
Condition: human, plasma, oral, 1250 mg b.i.d., day 22; dose 1250 b.i.d.; N=4; mean (SD); read-out: AUC0−τ
# output: bare number, implied unit ng·h/mL

// AUC value for CSCC[C@H](NC(=O)c1cc(NC[C@@H]2C[C@H](S)CN2)ccc1CCc1ccc(F)cc1)C(=O)O [AZD3409 acid] : 1230

Given item CSCC[C@H](NC(=O)c1cc(NC[C@@H]2C[C@H](S)CN2)ccc1CCc1ccc(F)cc1)C(=O)OC(C)C [AZD3409 ester] , the value recorded as its AUC is 2120

====

Kindly state AUC for each of the entries shown.
Assay Protocol: Plasma pharmacokinetics (LC-MS/MS, noncompartmental) in phase I patients
Format: in vivo, human
Condition: human, plasma, oral, 750 mg b.i.d., day 22; dose 750 b.i.d.; N=3; mean (SD); read-out: AUC0−τ
Include the unit right after the number.

AUC reported for this compound CSCC[C@H](NC(=O)c1cc(NC[C@@H]2C[C@H](S)CN2)ccc1CCc1ccc(F)cc1)C(=O)O [AZD3409 acid] : 934 ng·h/mL

According to the records, this compound CSCC[C@H](NC(=O)c1cc(NC[C@@H]2C[C@H](S)CN2)ccc1CCc1ccc(F)cc1)C(=O)OC(C)C [AZD3409 ester] displays AUC of 1720 ng·h/mL

Hey, just so you know, these numbers are from paper PMC2441954.
